# Tested on: 876862-298-R-J1-PDC complex spheroids, viability % test/control;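 also: spheroids exposed to drugs for 7 days before readout; 100% = DMSO vehicle control wells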
# PROTOCOL_DETAILS: Anticancer human tumor 876862-298-R-J1-PDC patient-derived endometrial carcinoma cell line growth inhibition [CLK]
# CONDITION_SUMMARY: second compound 0.0316 µM; first compound 1 µM; hits give low values
READOUT_LABEL: viability, T/C

COMPOUND	viability, T/C
C=C(F)C(=O)N1CCN(c2nc(OCC3CCCN3C)nc3c2CCN(c2cccc4cccc(Cl)c24)C3)CC1CC#N (stereo not given) + CNC(=O)c1ccc(Nc2nc(OC3CCCC3)c3c(-c4ccc5nc(C)oc5c4)c[nH]c3n2)c(OC)c1	84.6%
CC(Nc1ccc2c(c1)OCCn1cc(N3C(=O)OCC3C(F)F)nc1-2)C(N)=O (stereo not given) + CN1CCN(c2cc(C(=O)Nc3cc4cc(-c5cnn(C)c5)ccc4cn3)ccn2)CC1	50%
C#Cc1c(F)ccc2cc(O)cc(-c3ncc4c(N5CC6CCC(C5)N6)nc(OCC56CCCN5CC(F)C6)nc4c3F)c12 (stereo not given) + CN1CCN(c2cc(C(=O)Nc3cc4cc(-c5cnn(C)c5)ccc4cn3)ccn2)CC1	93.7%

Exam item: Recorded viability, T/C of O=c1[nH]cc(F)c(=O)[nH]1 + CNC(=O)c1ccc(Nc2nc(OC3CCCC3)c3c(-c4ccc5nc(C)oc5c4)c[nH]c3n2)c(OC)c1 , please.
Marked response: 94.6%

Exam item: Recorded viability, T/C of COc1c(OCCCN2CCOCC2)ccc2c3n(c(=NC(=O)c4cnc(N)nc4)nc12)CCN3 + CN1CCN(c2cc(C(=O)Nc3cc4cc(-c5cnn(C)c5)ccc4cn3)ccn2)CC1 , please.
Marked response: 17.8%
